What composite z-score was measured for each of the following?
target: Fibroblast growth factor 10 (Homo sapiens); assay: FGF10 binders on small-molecule microarrays, primary screen, biochemical, small-molecule microarray, 635 nm fluorescence (AID 1102); conditions: FGF10 binding, fluorescence 635 nm, higher = more signal
One number for each entry.

Worked set:
CC[C@H]1C2=C3C(CC[C@H]4C(OCc5ccc(F)cc5C(F)(F)F)OC[C@](C)([C@@H]34)N(C(=O)OC(C)(C)C)C2)C2COC(=O)OCC21 (stereo not given in full)
-0.0217
NC(=O)NCC#Cc1ccc2c(c1)[C@]1(C(=O)N2)[C@H](c2ccc(O)cc2)N2[C@H](c3ccccc3)[C@H](c3ccccc3)OC(=O)[C@H]2[C@@H]1C(=O)Nc1nc2ccccc2s1
1.25
CC(C)(C)OC(=O)CC[C@]1(C(=O)NCCN2CCOCC2)N=C(c2ccc(OCCCO)cc2)O[C@H]1c1ccccc1
-0.426
O=C1NC(=O)C2C1C=CC(C(O)c1ccc3c(c1)OCO3)N2Nc1ccccn1 (stereo not given)
0.212
COc1ccc(C#Cc2ccc3c(c2)[C@]2(C(=O)N3)[C@H](C(=O)N3CCc4cc(OC)c(OC)cc4C3)[C@H]3C(=O)O[C@H](c4ccccc4)[C@H](c4ccccc4)N3[C@@H]2c2ccc(O)cc2)cc1
0.851
COc1ccc(C(O)C2C=CC3C(=O)N(C)C(=O)C3N2N2CCCCC2)cc1 (stereo not given)
0.632

Parameter requested: composite z-score. Apply to each item below.
1. O=C1OCC=C[C@H]2OC34C=CCN(c5ccc(Cl)cc5)C(=O)[C@H]3N(CCCCCO)C(=O)[C@@H]4[C@@H]12 (stereo not given in full)
2. CC(=O)n1cc(C(O)C2C=CC3C(=O)N(c4ccccc4)C(=O)C3N2Nc2ccccc2)c2ccccc21 (stereo not given)
3. COc1ccc(C(O)C2C=CC3C(=O)N(c4ccccc4)C(=O)C3N2Nc2ccc(C#N)cc2)c2ccccc12 (stereo not given)
4. Cc1ccc(S[C@]2(C(=O)NCC(F)(F)F)CC(=O)N(Cc3ccccc3)[C@@H]2c2ccc(CO)cc2)cc1
5. O=C1OCCC=C[C@H]2OC34C=CCN(c5ccc(Cl)cc5)C(=O)[C@H]3N(CCCCCO)C(=O)[C@@H]4C12 (stereo not given in full)

Response:
-1.23
0.833
0.581
-0.409
-0.315

Parameter requested: composite z-score. Apply to each item below.
1. CCOC(=O)C[C@H]1[C@H](OC(=O)Cc2ccc3c(c2)OCO3)[C@@H](NC(=O)C2CCCCC2)c2cc(OCCCO)ccc2N1C(=O)c1ccc2ccccc2n1
2. CC(C)C(=C=CC[C@@H](O)c1ccccc1OCCO)C[C@@H](O)COCc1ccccc1

Response:
[1.47, 1.35]

Parameter requested: composite z-score. Apply to each item below.
1. Cc1ccc(S[C@]2(C(=O)NC(C)C)CC(=O)N(Cc3ccccc3C(F)(F)F)[C@@H]2c2ccc(CO)cc2I)cc1
2. O=C1NC(=O)C2C1C=CC(C(O)c1c(F)cccc1Cl)N2Nc1ccccn1 (stereo not given)

Response:
[-1.41, 0.48]

###

tested on: glycogen synthase kinase-3 (GSK3A per assay name; protocol says GSK3B); experiment: GSK3 binders on small-molecule microarrays, primary screen, biochemical, small-molecule microarray, 635 nm fluorescence, GSK3A (AID 1103); details: small-molecule microarray binding, fluorescence 635 nm; higher = more signal; also: the record names both GSK3A and GSK3B
property: composite z-score
Answers are plain numbers.

Worked set:
C=CCOC(=O)[C@H]1[C@@H]2C(=O)O[C@@H](c3ccccc3)[C@@H](c3ccccc3)N2[C@@H](c2ccc(OCCOC(=O)[C@H]3C[C@H]4C(=O)N[C@@H](CCCC[N+](C)(C)C)C(=O)N4[C@H]3c3cccc(OCCO)c3)cc2)[C@]12C(=O)Nc1ccc(I)cc12
0.701
C=CCOC(=O)[C@H]1[C@@H]2C(=O)O[C@@H](c3ccccc3)[C@@H](c3ccccc3)N2[C@@H](c2ccc(OCCOC(=O)[C@H]3C[C@H]4C(=O)N[C@@H](Cc5ccccc5)C(=O)N4[C@H]3c3cccc(OCCO)c3)cc2)[C@]12C(=O)Nc1ccc(I)cc12
1.28
C=C(CCCC)/C(=C/C[C@@H](OC(=O)c1ccncc1)c1cccc(OCCO)c1)c1cnc2ccccc2c1
0.667
CC=CC(O)C1C=CC2C(=O)N(c3ccccc3)C(=O)C2N1Nc1ccccc1 (stereo not drawn)
1.29
NC(=O)NCC#Cc1ccc2c(c1)[C@]1(C(=O)N2)[C@H](C(=O)O)[C@H]2C(=O)O[C@H](c3ccccc3)[C@H](c3ccccc3)N2[C@@H]1c1ccccc1OCCO
0.558
COc1ccc([Si](C)(C)[C@H]2[C@H](CCn3cc([C@H](O)c4ccccc4)nn3)O[C@@]3(C(=O)N(Cc4ccc(N5CCC5=O)cc4)c4ccccc43)[C@@H]2C)cc1
0.365
C=C(/C=C/CNS(=O)(=O)c1ccc(C)cc1)[C@H](O)[C@H]1CCCN1S(=O)(=O)c1ccccc1[N+](=O)[O-]
0.139

Turning now to a further record.
Prompt: Return the recorded composite z-score value; entry: "O=c1cccc(-c2cccc(Cl)c2)o1"
Response: 0.415

###

test system: Neuregulin-1 EGF-like domain; assay: binders of neuregulin-1 EGF-like domain, primary screen, biochemical, small-molecule microarray, 635 nm fluorescence (AID 1081); details: small-molecule microarray binding, higher = more signal;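 also: binding of the protein to compounds printed on small-molecule microarray slides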
Answer Condition not met if composite z-score is under 1, and Condition met if it is 1 or more.

Field: example entries. Status: answers known.
C=CC[C@@H](OC(=O)Nc1ccc(OC)cc1)c1ccc(OCCO)cc1
Condition not met
COCCOC(=O)N1C(=O)[C@@]2(c3cc(C#CC4(O)CCCCCC4)ccc31)[C@H](C(=O)N1CCCCCCC1)[C@H]1C(=O)O[C@H](c3ccccc3)[C@H](c3ccccc3)N1[C@@H]2c1ccc(OCCO)cc1
Condition met
CCCCN1CC=CC23O[C@@H]4C=CCOC(=O)[C@@H]4[C@H]2C(=O)N(CCCO)[C@@H]3C1=O (some centres not stated)
Condition met

Prompt: Form field: composite z-score at least 1? Entry: "COc1ccc([Si](C)(C)[C@@H]2[C@@H](CCn3cc([C@H](O)c4ccccc4)nn3)O[C@]3(C(=O)N(Cc4ccc(N5CCOC5=O)cc4)c4ccccc43)[C@H]2C)cc1"
Response: Condition not met

Prompt: Form field: composite z-score at least 1? Entry: CC(=O)n1cc(C(O)C2C=CC3C(=O)N(Cc4ccccc4)C(=O)C3N2n2cnnc2)c2ccccc21 (configuration not stated)
Response: Condition not met

Prompt: Form field: composite z-score at least 1? Entry: "CC(=O)NCCCC[C@@H]1NC(=O)[C@@H]2C[C@H](C(=O)O)[C@H](c3ccc(O)cc3)N2C1=O"
Response: Condition met

Prompt: Form field: composite z-score at least 1? Entry: "COCCCNC(=O)[C@@]1(Sc2ccc(C)cc2)CC(=O)N(C2Cc3ccccc3C2)[C@@H]1c1ccc(CO)cc1I"
Response: Condition not met

###

target: Albumin (Bos taurus); test: bovine serum albumin binders on microarray, profiling panel, artefact control for SMM control protein annotation, biochemical, small-molecule microarray, Alexa647 label, 635/667 nm fluorescence (AID 1118); conditions: BSA-A647 binding, fluorescence 635 nm, higher = more signal;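 also: score merges 667 nm emission intensity and signal-to-noise per printed compound spot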
What composite z-score was measured for each of the following?
Numbers only.

C=CC[C@]1(C(=O)N(C)C)N=C(c2ccc(OCCCO)cc2)O[C@H]1c1ccccc1N=[N+]=[N-]
1.07
CC(C)C(=C=CC[C@@H](O)c1ccccc1OCCO)C[C@@H](O)COCc1ccccc1
-0.111
C=C(CCCC)C(=O)CC[C@@H](OC(=O)c1cccnc1)c1ccccc1OCCO
-0.326
CCOC(=O)C[C@H]1[C@H](OC(=O)Cc2ccc3c(c2)OCO3)[C@@H](NC(=O)Cc2ccc(OC)cc2)c2cc(OCCCO)ccc2N1C(=O)c1ccccc1
0.793
C=CCNC(=O)[C@@H]1[C@H]2C(=O)O[C@H](c3ccccc3)[C@H](c3ccccc3)N2[C@H](c2ccc(OCCO)cc2)[C@@]12C(=O)N(C(=O)OCCOC)c1ccc(C#CC3=CCCCC3)cc12
0.498
C=CCC(OC(C)=O)[C@@H]1[C@@H](N(Cc2ccc(-c3ccccc3)cc2)C(=O)c2cccc3ccccc23)c2cc(OCCCO)ccc2N1C(=O)Cc1ccc2ccccc2c1 (some centres not stated)
0.413

Turning now to a further record.
Prompt: Return the recorded composite z-score value; entry: [N-]=[N+]=NCc1ccccc1C[C@]1(C(=O)NCC(O)CO)N=C(c2ccc(OCCCO)cc2)O[C@H]1c1ccccc1CN=[N+]=[N-] (some centres not stated)
Response: 0.801

###

biological target: Torsin-1A-interacting protein 1 (Homo sapiens) (UniProt Q5JTV8); assay: LAP1 binders from COS7 cell lysate, primary screen, small-molecule microarray, 635/667 nm fluorescence (AID 1116); conditions: COS7-hLAP1 lysate binding, 635 nm fluorescence, higher = more signal
Sequence (Q5JTV8 whole entry, looked up): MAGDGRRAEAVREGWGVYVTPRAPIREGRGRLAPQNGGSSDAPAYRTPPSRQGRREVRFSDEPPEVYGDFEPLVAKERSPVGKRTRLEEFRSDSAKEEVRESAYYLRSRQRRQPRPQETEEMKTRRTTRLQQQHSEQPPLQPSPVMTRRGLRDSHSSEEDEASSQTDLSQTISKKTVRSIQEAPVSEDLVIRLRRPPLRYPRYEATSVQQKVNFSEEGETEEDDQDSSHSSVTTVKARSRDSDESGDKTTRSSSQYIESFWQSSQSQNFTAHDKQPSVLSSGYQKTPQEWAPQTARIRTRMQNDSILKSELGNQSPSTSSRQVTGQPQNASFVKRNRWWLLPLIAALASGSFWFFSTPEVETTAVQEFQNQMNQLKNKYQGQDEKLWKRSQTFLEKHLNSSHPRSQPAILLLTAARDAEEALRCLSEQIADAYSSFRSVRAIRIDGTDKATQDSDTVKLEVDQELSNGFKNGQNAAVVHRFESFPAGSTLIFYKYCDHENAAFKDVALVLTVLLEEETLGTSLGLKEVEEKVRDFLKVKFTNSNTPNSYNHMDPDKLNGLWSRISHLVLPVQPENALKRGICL
Answer N if composite z-score is under 0.7, and Y if it is 0.7 or more.

Field: example entries. Status: answers known.
O=C1O[C@@H](c2ccccc2)[C@@H](c2ccccc2)N2[C@@H](c3ccccc3OCCO)[C@]3(C(=O)Nc4ccc(C#CC5=CCCCC5)cc43)[C@@H](C(=O)NC[C@H](O)c3ccccc3)[C@H]12
N
COC(=O)C1(Cc2ccccc2)C=C2C(=C(c3ccccc3)C(=O)C2C)CN1 (configuration not stated)
Y
O=C1O[C@@H](c2ccccc2)[C@@H](c2ccccc2)N2[C@@H](c3ccccc3OCCO)[C@]3(C(=O)Nc4ccc(C#CCCO)cc43)[C@@H](C(=O)N3CCN(c4ncccn4)CC3)[C@H]12
Y
C=C(/C(=C/C[C@@H](OC(=O)c1ccncc1)c1ccccc1OCCO)c1cc(C(=O)OC)ccc1OC)C(C)C
N
CC=CC(O)C1C=CC2C(=O)N(c3ccccc3)C(=O)C2N1Nc1ccccc1 (configuration not stated)
Y

Prompt: Form field: composite z-score at least 0.7? Entry: "O=C(NC1CC1)[C@@H]1c2ccccc2C(=O)N(Cc2ccccc2)[C@H]1c1ccc(CO)cc1"
Response: Y

Prompt: Form field: composite z-score at least 0.7? Entry: "C=CC[C@@]12N=C(c3ccc(OCCCO)cc3)O[C@@H]1c1ccccc1N(CCS(=O)(=O)c1ccccc1)C2=O"
Response: N
